Reference source for all entries: the kinase profiling compilation of Christmann-Franck et al. (2016)

Could you please report measured residual activity for the items listed next?
- Target Entity: DCLK2 (human) (UniProt Q8N568)
- Sequence (Q8N568 whole entry, looked up): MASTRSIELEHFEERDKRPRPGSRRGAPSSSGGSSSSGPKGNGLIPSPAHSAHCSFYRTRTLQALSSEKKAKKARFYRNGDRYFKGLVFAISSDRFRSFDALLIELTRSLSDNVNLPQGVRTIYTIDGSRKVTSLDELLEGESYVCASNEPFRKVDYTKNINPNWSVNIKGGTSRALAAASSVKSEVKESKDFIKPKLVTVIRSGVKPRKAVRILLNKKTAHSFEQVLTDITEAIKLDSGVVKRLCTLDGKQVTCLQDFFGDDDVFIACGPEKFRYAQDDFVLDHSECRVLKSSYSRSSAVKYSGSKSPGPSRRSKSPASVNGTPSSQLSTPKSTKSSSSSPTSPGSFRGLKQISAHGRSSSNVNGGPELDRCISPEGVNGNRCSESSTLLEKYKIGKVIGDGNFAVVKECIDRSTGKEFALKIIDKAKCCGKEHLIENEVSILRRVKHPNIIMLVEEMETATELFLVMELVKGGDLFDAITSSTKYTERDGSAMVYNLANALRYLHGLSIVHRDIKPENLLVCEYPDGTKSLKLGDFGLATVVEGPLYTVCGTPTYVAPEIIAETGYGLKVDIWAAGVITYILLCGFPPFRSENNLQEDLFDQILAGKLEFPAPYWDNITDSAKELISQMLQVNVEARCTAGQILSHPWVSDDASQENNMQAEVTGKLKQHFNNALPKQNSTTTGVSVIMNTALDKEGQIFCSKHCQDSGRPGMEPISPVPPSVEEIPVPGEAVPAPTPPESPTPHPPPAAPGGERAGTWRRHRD
- Test Description: radiometric filter-binding kinase assay, Kinase HotSpot
- Measurement Parameters: compound 0.5 µM; ATP 10 µM
# unit: % | format: bare number

Prompt: Entry under review: `Cc1cccc(-c2nc(C(C)(C)C)[nH]c2-c2ccc3c(c2)OCO3)n1` . Reported residual activity?
Response: 101

Prompt: What measured residual activity goes with `CN(C)CCCn1cc(C2=C(c3c[nH]c4ccccc34)C(=O)NC2=O)c2ccccc21` ?
Response: 95

Prompt: I'd like to know its residual activity. The molecule in question is `NC(=O)c1cccc(-c2cc(Nc3ccc(OC(F)(F)F)cc3)ncn2)c1`
Response: 104

Prompt: Name the recorded residual activity for `Cc1cncc2cccc(S(=O)(=O)N3CCCN(C(=O)CN)C[C@H]3C)c12` .
Response: 89

Prompt: Which residual activity value belongs to `O=C1c2ccccc2-c2nc3nnnn3nc21` ?
Response: 86.5

Prompt: Give its residual activity value. Item: `COc1ccc(Cl)cc1NC(=O)Nc1cc(C)nc2ccccc12`
Response: 96.5

Prompt: Report residual activity for `O=C1C(Cl)=C(N2C(=O)CCC2=O)C(=O)c2ccccc21` please.
Response: 100

Prompt: # get_value(readout='residual activity', item= `N#Cc1c[nH]c2c[nH]/c(=N\Cc3cccnc3)cc2/c1=N\c1ccc(F)c(Cl)c1` )
Response: 97.2

Prompt: Any idea what residual activity was measured for `CS(=O)(=O)CCNCc1ccc(-c2ccc3ncnc(Nc4ccc(OCc5cccc(F)c5)c(Cl)c4)c3c2)o1` ?
Response: 101

Prompt: Look up residual activity for this molecule: `COc1ccc2c(c1)/C(=C/c1cnc[nH]1)C(O)=N2`
Response: 96

Prompt: Reported residual activity for `O=C1Nc2ccc(Br)cc2/C1=C\c1cc2c([nH]1)CCCC2` : what is it?
Response: 98.2

Prompt: # input molecule: `COc1ccc2c(c1)c(C1=C(c3c[nH]c4ccccc34)C(=O)NC1=O)cn2CCCN(C)C` ; wanted: its residual activity
Response: 84.8

Prompt: residual activity lookup needed for `COc1ccc(S(=O)(=O)N(CCO)c2ccccc2CN(C)C/C=C/c2ccc(Cl)cc2)cc1` , thanks.
Response: 99.1

Prompt: Dear colleague, I am looking for the recorded residual activity of the following molecule: `O=C1NC(=O)c2c1c1c3ccccc3[nH]c1n1cncc21`
Response: 82.3

Prompt: Given `Fc1ccc(-c2nc3n(c2-c2ccncc2)CCS3)cc1` , state its recorded residual activity.
Response: 97.4

Prompt: I would be grateful if you could share the reported residual activity for `COc1cc2ncnc(Nc3ccc(OCc4ccccc4)cc3)c2cc1OC` .
Response: 102

Prompt: I'd like to know its residual activity. The molecule in question is `Ic1cccc(CSc2nnc(-c3ccncc3)o2)c1`
Response: 100

Prompt: I am curious: what residual activity value has been reported for `COc1ccc(C(=O)Nc2sc3c(c2C(N)=O)CCCC3)cc1OC` ?
Response: 98.6

Prompt: # residual activity lookup, item `CO[C@@H]1[C@H](N(C)C(=O)c2ccccc2)C[C@H]2O[C@]1(C)n1c3ccccc3c3c4c(c5c6ccccc6n2c5c31)C(=O)NC4`
Response: 101

Prompt: What measured residual activity goes with `N#C/C(=C\c1ccc(O)c(O)c1)C(=O)NCc1ccccc1` ?
Response: 101

Prompt: So what's the measured residual activity for this one? `COc1cc(Nc2c(C#N)cnc3cc(OCCCN4CCN(C)CC4)c(OC)cc23)c(Cl)cc1Cl`
Response: 98.4
